Target: Rhodesain (Trypanosoma brucei rhodesiense, UniProt Q95PM0)
Sequence (Q95PM0 whole entry): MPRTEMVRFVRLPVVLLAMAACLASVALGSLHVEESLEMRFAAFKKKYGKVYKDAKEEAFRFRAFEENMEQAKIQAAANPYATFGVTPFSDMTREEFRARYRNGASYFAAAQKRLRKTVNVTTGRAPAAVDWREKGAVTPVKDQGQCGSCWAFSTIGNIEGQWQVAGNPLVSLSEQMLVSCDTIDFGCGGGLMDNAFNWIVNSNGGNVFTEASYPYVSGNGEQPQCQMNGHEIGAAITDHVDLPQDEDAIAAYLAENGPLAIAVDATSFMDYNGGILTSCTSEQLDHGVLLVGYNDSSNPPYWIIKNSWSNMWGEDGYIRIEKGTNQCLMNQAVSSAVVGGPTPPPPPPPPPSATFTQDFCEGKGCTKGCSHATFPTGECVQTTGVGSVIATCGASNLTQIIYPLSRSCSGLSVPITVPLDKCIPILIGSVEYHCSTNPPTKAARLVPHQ
Test: Inhibition of recombinant Trypanosoma brucei rhodesiense rhodesain expressed in Pichia pastoris using Cbz-Phe-Arg-AMC as substrate after 30 min by fluorescence assay
property: pKi
On this scale, pKi is minus log10 of a concentration expressed in M (mol/L).

Ask: Can you share its pKi? I mean this compound: CC(=O)/C=C/[C@H](CCc1ccccc1)NC(=O)[C@H](CC(C)C)NC(=O)OCc1ccccc1
Reply: 9.30

Ask: Can you share its pKi? I mean this compound: COC(=O)/C=C/[C@H](CCc1ccccc1)NC(=O)[C@H](Cc1ccccc1)NC(=O)OCc1ccccc1
Reply: 8.70

Ask: Can you share its pKi? I mean this compound: CC(C)C[C@H](NC(=O)OCc1ccc([N+](=O)[O-])cc1)C(=O)N[C@H](/C=C/S(=O)(=O)c1ccccc1)CCc1ccccc1
Reply: 7.85

Ask: Can you share its pKi? I mean this compound: COC(=O)/C=C/[C@H](CCc1ccccc1)NC(=O)[C@H](CC(C)C)NC(=O)OCc1ccccc1
Reply: 8.12

Ask: Can you share its pKi? I mean this compound: CC(C)C[C@H](NC(=O)[C@H]1O[C@@H]1C(=O)O)C(=O)NCCCCN=C(N)N [E-64]
Reply: 7.46

Ask: Can you share its pKi? I mean this compound: COC(=O)/C=C/[C@H](CCc1ccccc1)NC(=O)[C@H](CC(C)C)NC(=O)OCc1ccc([N+](=O)[O-])cc1
Reply: 7.77

Ask: Can you share its pKi? I mean this compound: CC(=O)/C=C/[C@H](CCc1ccccc1)NC(=O)[C@H](CC(C)C)NC(=O)OCc1ccc([N+](=O)[O-])cc1
Reply: 9.05

Ask: Can you share its pKi? I mean this compound: COC(=O)/C=C/[C@H](CCc1ccccc1)NC(=O)[C@H](Cc1ccccc1)NC(=O)OCc1ccc([N+](=O)[O-])cc1
Reply: 8.44

----------
I'd be grateful if you could share measured pIC50 for these entries.
Target: UniProtKB Q9N6S8
Sequence (Q9N6S8 whole entry): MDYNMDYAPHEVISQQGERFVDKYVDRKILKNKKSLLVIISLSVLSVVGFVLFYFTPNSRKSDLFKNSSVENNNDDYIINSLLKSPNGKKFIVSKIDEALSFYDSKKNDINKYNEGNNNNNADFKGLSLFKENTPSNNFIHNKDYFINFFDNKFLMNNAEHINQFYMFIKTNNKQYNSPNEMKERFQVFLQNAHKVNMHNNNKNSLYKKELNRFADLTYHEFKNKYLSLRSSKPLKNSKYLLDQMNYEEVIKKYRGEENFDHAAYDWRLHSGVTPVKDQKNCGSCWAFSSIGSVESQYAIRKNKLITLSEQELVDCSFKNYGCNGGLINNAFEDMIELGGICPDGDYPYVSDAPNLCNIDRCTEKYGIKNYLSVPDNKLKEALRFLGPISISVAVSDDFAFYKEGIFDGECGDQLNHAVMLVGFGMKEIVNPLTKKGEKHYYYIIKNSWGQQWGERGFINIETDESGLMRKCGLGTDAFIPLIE
Assay: Inhibition of recombinant Plasmodium falciparum falcipain-2 expressed in Escherichia coli M15(pREP4) using Cbz-Phe-Arg-AMC as substrate by fluorescence assay
On this scale, pIC50 is minus log10 of a concentration expressed in M (mol/L).

Ask: Can you share its pIC50? I mean this compound: CC(C)C[C@H](NC(=O)OCc1ccccc1)C(=O)N[C@H](/C=C/S(=O)(=O)c1ccccc1)CCc1ccccc1
Reply: 6.11

Ask: Can you share its pIC50? I mean this compound: O=C(N[C@@H](Cc1ccccc1)C(=O)N[C@H](/C=C/S(=O)(=O)c1ccccc1)CCc1ccccc1)OCc1ccccc1
Reply: 5.13

Ask: Can you share its pIC50? I mean this compound: CC(C)C[C@H](NC(=O)OCc1ccc([N+](=O)[O-])cc1)C(=O)N[C@H](/C=C/S(=O)(=O)c1ccccc1)CCc1ccccc1
Reply: 5.88

Ask: Can you share its pIC50? I mean this compound: COC(=O)/C=C/[C@H](CCc1ccccc1)NC(=O)[C@H](CC(C)C)NC(=O)OCc1ccccc1
Reply: 5.02

Ask: Can you share its pIC50? I mean this compound: COC(=O)/C=C/[C@H](CCc1ccccc1)NC(=O)[C@H](CC(C)C)NC(=O)OCc1ccc([N+](=O)[O-])cc1
Reply: 5.02

Ask: Can you share its pIC50? I mean this compound: CC(C)C[C@H](NC(=O)[C@H]1O[C@@H]1C(=O)O)C(=O)NCCCCN=C(N)N
Reply: 6.60

Ask: Can you share its pIC50? I mean this compound: CC(=O)/C=C/[C@H](CCc1ccccc1)NC(=O)[C@H](CC(C)C)NC(=O)OCc1ccccc1
Reply: 6.60
